Could you please report measured pIC50 for the items listed next?
- Test system: norepinephrine (NE) uptake, rat midbrain synaptosomes
- Experimental protocol: Inhibition of 3H-NE uptake in rat midbrain synaptosomes in vitro
- Type: biochemical
- Experimental setup: rat midbrain-diencephalon synaptosomes; NE 1×10^-8 M; 20 minutes
- Procedure: The inhibition of norepinephrine (NE) uptake is determined in rat midbrain synaptosomes in vitro as follows: Synaptosomes from the rat midbrain-diencephalon region are prepared and the uptake of ^3 H-NE is measured as described by Baumann and Maitre, Naunyn-Schmiedeberg's Arch. Pharmacol. 300, 31 (1977). The concenrtration of NE in the incubation medium is 1×10^-8 M, and the incubation period is 20 minutes. […]
pIC50: −log10 of the molar value.

pIC50 lookup needed for CSc1ccc(OCC(Cc2ccccc2)CN(C)C)cc1.O=C(O)C(=O)O (stereo not shown) [3/2, oxalate] , thanks. ~6.30

pIC50 lookup needed for CNCC(COc1ccc(C(F)(F)F)cc1)Cc1ccccc1.O=C(O)C(=O)O (stereo not shown) [oxalate] , thanks. ~5.70

pIC50 lookup needed for CCN(CC)CC(COc1ccccc1)Cc1ccccc1.Cl (stereo not shown) [Example 16, hydrochloride, reference compound] , thanks. 5.70

pIC50 lookup needed for CN(C)CC(COc1ccc(C(F)(F)F)cc1)Cc1ccccc1.O=C(O)C(=O)O (stereo not shown) [Example 1, oxalate] , thanks. ~5.52
